B1: DVL3 (parent)
chain: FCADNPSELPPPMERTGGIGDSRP

Variants of: B1
assay-info: protein stability index of a GFP-peptide fusion (GPS, HEK-293T) (PSI 1-6); higher = more stable;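 also: lentivirally expressed fusions sorted by FACS into six bins by GFP to DsRed ratio, PSI derived from sequencing read proportions per bin multiplied by bin number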
condition-details: c terminus: a fixed tail appended
Reported protein stability index is given for each of the following variants.

INSERT INTO assay_data (mutations, value_reported) VALUES
  ('E14I', 3.98),
  ('F1R', 4.68),
  ('R15P', 4.99),
  ('G20T', 4.66),
  ('F1A', 5.49),
  ('N5Q', 4.45);

Prompt line: Return value of protein stability index for input M13Y , no commentary.
Response line: 4.07

Prompt line: Identify protein stability index associated with the variant C2T
Response line: 5.06

Prompt line: Assign protein stability index to the following record: R23A
Response line: 4.89

Prompt line: Supply recorded protein stability index for P12K here.
Response line: 4.69

Prompt line: Return protein stability index (reported value) for this variant: P24N
Response line: 4.6
